# Tested on: U2OS
# method_summary: cell viability relative to DMSO; higher = less toxic
# run_parameters: 72 h; 100 nM

compound: CC(C)(O)c1ccn2c(-c3ccc(F)c(-c4ccc(F)cc4C#N)c3)cnc2c1F [TP-003]
experimental_target: U2OS
cell viability / %: 104
--
compound: c1ccc2cc(C3=NCCN3)ncc2c1 [BU226]
experimental_target: U2OS
cell viability / %: 99.7
--
compound: C[C@@H](C(=O)O)c1ccc(-c2ccccc2)c(F)c1 (racemic) [flurbiprofen-(+/-)]
experimental_target: U2OS
cell viability / %: 99.4
--
compound: CC(=O)NCCCS(=O)(=O)O [acamprosate]
experimental_target: U2OS
cell viability / %: 99.3
--
compound: O=C(c1ccc(OCCN2CCCCC2)cc1)c1c(-c2ccc(O)cc2)sc2cc(O)ccc12 [raloxifene]
experimental_target: U2OS
cell viability / %: 97.7
--
compound: CC#CC(=O)N1CC[C@@H](n2c(=O)n(-c3ccc(Oc4ccccc4)cc3)c3c(N)ncnc32)C1 [ONO-4059]
experimental_target: U2OS
cell viability / %: 103
--
compound: Nc1ccn(C[C@@H](CO)OCP(=O)(O)O)c(=O)n1 [cidofovir]
experimental_target: U2OS
cell viability / %: 97.5
--
compound: CCCCCCCCCCCC(=O)O [lauric-acid]
experimental_target: U2OS
cell viability / %: 102
--
compound: CC(C)Oc1ccc(Cc2ccc(NC3=NCCN3)cc2)cc1
experimental_target: U2OS
cell viability / %: 95.3
--
compound: O=C(O)CCCNC(=O)c1cccnc1 [pikamilone]
experimental_target: U2OS
cell viability / %: 103

----------
# Test system: U2OS
# method_summary: cell viability relative to DMSO; higher = less toxic
# run_parameters: 72 h; 1 nM
Below: a set of entries, each annotated with reported cell viability.

compound: C1Cc2[nH]nc(-c3nn[nH]n3)c2C1
cell viability: 101%
--
compound: CC(C)N(CCCNC(=O)Nc1ccc(C(C)(C)C)cc1)C[C@H]1O[C@@H](n2ccc3c(N)ncnc32)[C@H](O)[C@@H]1O
cell viability: 94.1%
--
compound: CCCN(CCC)CCc1ccc(OC)c(OCCc2ccccc2)c1
cell viability: 105%
--
compound: CN/C(=N\S(=O)(=O)c1ccc(Cl)cc1)N1C[C@H](c2ccccc2)C(c2ccc(Cl)cc2)=N1 (racemic) [SLV-319-(+/-)]
cell viability: 99.9%
--
compound: CCCCCCCCCC(=O)OC1(c2ccc(Cl)cc2)CCN(CCCC(=O)c2ccc(F)cc2)CC1 [haloperidol-decanoate]
cell viability: 107%
--
compound: Cc1cc(C)cc(OCC2CNC(=O)O2)c1 (centres undefined)
cell viability: 97.4%
--
compound: CON
cell viability: 99.2%
--
compound: CC(O)(C(=O)Nc1ccc(S(=O)(=O)c2ccccc2)cc1)C(F)(F)F (centres undefined)
cell viability: 99.2%
--
compound: C[C@]12CC[C@H]3[C@@H](CC[C@@]45O[C@@H]4C(O)=C(C#N)C[C@]35C)[C@@H]1CC[C@@H]2O
cell viability: 98.8%
--
compound: CC(C)(C)c1cc(C=C(C#N)C#N)cc(Br)c1O
cell viability: 105%
--
compound: CC#CC(=O)N1CC[C@@H](n2c(=O)n(-c3ccc(Oc4ccccc4)cc3)c3c(N)ncnc32)C1
cell viability: 101%
--
compound: N[C@H](C(=O)O)c1ccc(O)cc1
cell viability: 99.7%
--
compound: CC1=C(C(=O)O)N2C(=O)[C@@H](NC(=O)[C@H](N)c3ccc(O)cc3)[C@H]2SC1
cell viability: 101%
--
compound: CC1=C(/C=C/C(C)=C/C=C/C(C)=C/C(=O)O)C(C)(C)CCC1
cell viability: 98.8%
--
compound: N#CCC(=O)NN [cyacetacide]
cell viability: 95.5%
--
compound: Cc1ccc(NC2=NCCN2)c(Cl)c1
cell viability: 101%
--
compound: Nc1nc(N)nc(-c2cc(Cl)ccc2Cl)n1
cell viability: 105%
--
compound: Nc1ccn(C[C@@H](CO)OCP(=O)(O)O)c(=O)n1
cell viability: 99.4%
--
compound: O=[N+]([O-])c1cc(O)c(O)c([N+](=O)[O-])c1
cell viability: 98.2%
--
compound: Nc1nc(/C(=C/CC(=O)O)C(=O)N[C@@H]2C(=O)N3C(C(=O)O)=CCS[C@H]23)cs1
cell viability: 101%
--
compound: COc1ccc(-c2csc(NC(=O)[C@H]3CCCCN3S(=O)(=O)c3ccc(C)cc3)n2)cc1
cell viability: 98.4%
--
compound: Cc1cccc(C)c1NC(=O)c1ccc(N)cc1 [ameltolide]
cell viability: 97%
--
compound: CC(C)Oc1ccc(Cc2ccc(NC3=NCCN3)cc2)cc1
cell viability: 95.3%
--
compound: O=S(=O)(F)Cc1ccccc1 [phenylmethylsulfonyl-fluoride]
cell viability: 106%
--
compound: CN[C@@H](C)C(=O)N[C@H]1CCCC[C@H]2CC[C@@H](C(=O)N[C@@H](c3ccccc3)c3cn(CCCCc4ccc(CCCCn5cc([C@@H](NC(=O)[C@@H]6CC[C@@H]7CCCC[C@H](NC(=O)[C@H](C)NC)C(=O)N76)c6ccccc6)nn5)cc4)nn3)N2C1=O
cell viability: 99.5%
--
compound: Cc1ccccc1C(C(=O)NC1CCCCC1)N(C(=O)Cn1ccnc1C)c1cccc(F)c1 (centres undefined)
cell viability: 96.6%
--
compound: CC(=O)N(CC(O)CO)c1c(I)c(C(=O)NCC(O)CO)c(I)c(C(=O)NCC(O)CO)c1I (centres undefined) [iohexol]
cell viability: 98%
--
compound: CC[C@H](C)C[C@H](C)CCCCCCCCC(=O)N[C@H]1C[C@@H](O)[C@@H](NCCN)NC(=O)[C@@H]2[C@@H](O)CCN2C(=O)[C@H]([C@H](O)CCN)NC(=O)[C@H]([C@H](O)[C@@H](O)c2ccc(O)cc2)NC(=O)[C@@H]2C[C@@H](O)CN2C(=O)[C@H]([C@@H](C)O)NC1=O
cell viability: 95.2%
--
compound: COc1cc2nc(N3CCN(C(=O)COc4c(OC)cccc4C(C)C)CC3)nc(N)c2cc1OC
cell viability: 96.4%
--
compound: N#CSc1cc(SC#N)c(N)nc1N
cell viability: 101%
--
compound: O=C1CNC(=O)CN1
cell viability: 99%
--
compound: Cc1cc(C)cc(NC(=O)Cc2ccc(OC(C)(C)C(=O)O)cc2)c1
cell viability: 97.7%
--
compound: CCCCCCCCCCCCCCCCCCCCCC(=O)Nc1ccn([C@@H]2O[C@H](CO)[C@@H](O)[C@@H]2O)c(=O)n1
cell viability: 94.1%
--
compound: CN1CCN(C(c2ccccc2)c2ccccc2)CC1
cell viability: 105%

Numbers sourced from the supplement of paper PMC13380429.
